Overview of reported cell viability across a group of compounds:
# Tested on: RAW 264.7 cells
# assay explanation: MTT assay, cell viability after 24 h incubation
# measurement context: RAW 264.7 cells, 100 μM loading concentration, 24 h incubation
quantity name: cell viability

- C[n+]1ccc(-c2nc3sc(-c4cc[n+](C)cc4)nc3s2)cc1 [4·2Cl, reference compound]: ~75%
- C[n+]1ccc(-c2cc[n+](C)cc2)cc1: ~63%
- C[n+]1ccc(-c2ccc(-c3cc[n+](C)cc3)cc2)cc1: 68%
